meta.source: the supplement of paper PMC10567573

B1: LARP4 (parent)
chain: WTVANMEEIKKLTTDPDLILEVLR

Variants of: B1
assay_notes: protein stability index of a GFP-peptide fusion (GPS, HEK-293T) (PSI 1-6); higher = more stable;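 further: lentivirally expressed fusions sorted by FACS into six bins by GFP to DsRed ratio, PSI derived from sequencing read proportions per bin multiplied by bin number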
test_parameters: c terminus: a fixed tail appended
In this section we review reported protein stability index values for a set of variants.
Quick one: just the number, no unit, thanks!

T2P :: 3.13
N5P :: 1.76
L18M :: 2.55

Task: Suppose we examine the variant D17S ; what protein stability index value has been reported?
Result: 2.02

Task: Suppose we examine the variant E21N ; what protein stability index value has been reported?
Result: 2.32

Task: Suppose we examine the variant D17T ; what protein stability index value has been reported?
Result: 1.77
